experiment: NCI Yeast Anticancer Drug Screen. Data for the mec2-1 strain (AID 157); conditions: S. cerevisiae mec2-1 strain, at 50.0 µM, active compounds read high
Compounds without any hit were thinned out: in the full panel of roughly 79,000, 15% have a hit.
# Lookup of reported growth inhibition keyed by entry
property_label: growth inhibition (%)

| compound | unit_spec | numeric_value |
| --- | --- | --- |
| COc1ccc2c(c1OC)C(=O)O[C@@H]2[C@H]1c2cc3c(cc2CCN1C)OCO3 | % | -4.8 |
| Cc1ccc(C(=O)O[C@H](C(=O)O)[C@H](OC(=O)c2ccc(C)cc2)C(=O)O)cc1 | % | -4.05 |
| CCOP(=O)(OCC)C(C#N)Cc1ccccc1OC (centres undefined) | % | 4.15 |
| O=NNc1ccc(C(F)(F)F)cn1 | % | -6.95 |
| O=C1C2C3c4ccccc4C(C2C(=O)N1c1ccccc1)[n+]1ccccc13 (centres undefined) | % | 16.1 |
| Cc1cccc(C)c1NC(N)=S | % | 6.15 |
| COC(=O)CCc1ccc(NP(=O)(Oc2ccccc2)N(CCCl)CCCl)cc1 (centres undefined) | % | 20.2 |
| CCC1CC[Si](C)(C)CC12C(=O)NC(=O)NC2=O (centres undefined) | % | -2.25 |
| CCOC(=O)C1C(=O)NC2CCC(=O)CC21c1ccc2c(c1)OCO2 (centres undefined) | % | -9.5 |
| Cc1ccc(NC(=O)N(C)N=O)cc1 | % | 5.5 |
| Cc1cc(=O)oc2cc(OC(=O)N(C)C)c(Cl)cc12 | % | -11.3 |
| CC12CCC3C(CCC4CC(Cl)CCC43C)C1CCC2=O (centres undefined) | % | 8.5 |
| Cc1ccc2c(c1)Cc1ccccc1-2 | % | -17.2 |
| CCC1CN1P1(=O)OCC(C)(N)CO1 (centres undefined) | % | 0.7 |
| O=C(O)CC(=O)O.[NH-]C1CCCCC1[NH-].[Pt+2] (centres undefined) | % | 4.35 |
| C(=C\C1CC2CCCN2O1)/c1ccccc1 (centres undefined) | % | -20.5 |
| CCOC(=O)C(O)(c1ccccc1)c1ccccc1 | % | -5.95 |
| O=C1/C(=C\c2ccccc2)C2OCC=C3CN4CCC56c7ccccc7N1C5C2C3CC46 (centres undefined) | % | -33.1 |
| CC1(C)N=C(N)N=C(N)N1c1ccc(CCc2cc(Cl)ccc2S(=O)(=O)F)c(Cl)c1 | % | 99.7 |
| COC(=O)CP(=O)(OC)OCC(F)(F)F (centres undefined) | % | -14.4 |
| C=CCNC(=S)/N=C/c1c(O)[nH]c(=O)[nH]c1=O | % | -50.4 |
| NC(=O)c1cc(N(CCBr)CCBr)c([N+](=O)[O-])cc1[N+](=O)[O-] | % | 1.25 |
| O=C(CCN1CC=C(c2ccccc2)CC1)NCc1ccccc1 | % | -6.8 |
| COc1ccccc1OC (tested in a mixture with another compound) | % | 16.7 |

====

assay: NCI Yeast Anticancer Drug Screen. Data for the cln2 rad14 strain (AID 165);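 further: 0% = growth equal to vehicle treated cultures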; conditions: S. cerevisiae cln2 rad14 strain, at 50.0 µM
The panel holds about 79,000 compounds, 15% with a hit somewhere; the sample as a whole holds those more often. Active and inactive are the calls of the source. No stated cut-off is given here; in the data, active means growth inhibition above about 70%; inactive means the rest.
Labels: active, inactive

| compound | class_assignment |
| --- | --- |
| CC1CC(C)OP(Oc2ccccc2)O1 (stereo unspecified) | inactive |
| COC(=O)/C=C/c1ccc(Cl)cc1 | inactive |
| C=CCn1nnc(N)n1 | inactive |
| CC(=O)O[C@H]1CC[C@]2(C)[C@H]3CC[C@]4(C)[C@@H](OC(C)=O)CC[C@H]4[C@@H]3[C@H](C=O)[C@]2(O)C1 | inactive |
| CCCCOCCOC(=O)CCl | inactive |
| Oc1ccccc1I | inactive |
| Cc1ccc2c3c(c(=O)oc2c1)[C@H](C)C[C@@](C)(CO)O3 | inactive |
| O=C(O)C(F)F | inactive |
| CCOC(=O)C(CC)(CC)C(=O)OCC | inactive |
| CCCC(NC(=O)CCl)C(=O)O (stereo unspecified) | inactive |
| CCCCCCCCCCCCCCCCP(=O)(O)OP(=O)(O)OCC1OC(n2cnc3c(N)ncnc32)C(O)C1O (stereo unspecified) | inactive |
| CCOC(=O)c1cc2c(cn1)[nH]c1ccccc12 | inactive |
| CCCCOP(=S)(OCCCC)Oc1ccc(Cl)cc1Cl | inactive |
| C[Si](C)(C)[C@@]1([Se]c2ccccc2)CC[C@@H]1C(=O)c1ccccc1 | inactive |
| COc1ccc2nc3ccccc3c(NCCCN(C)CCCl)c2c1 | inactive |
| COc1ccc(N2C(=O)C3C4c5ccccc5C(C3C2=O)[n+]2ccccc24)cc1 (stereo unspecified) | inactive |
| CN1CCN(C)C1=Nc1ccccc1/C=C/C=C1C(=O)N(C)C(=O)N(C)C1=O | inactive |
| Nc1ccn(C2OC(COP(=O)(O)Oc3ccccc3)C(O)C2O)c(=O)n1 (stereo unspecified) | inactive |
| CC1(C)OC2(C)CCC1C1C2N1C(=O)c1ccccc1 (stereo unspecified) | inactive |
| C[N+](C)(C)CC1CCC/C1=N/O (stereo unspecified) | inactive |
| CC/C=C/C1(C)C(=O)NC(=S)NC1=O | inactive |
| CCCCCCCC(=O)O.[Sn] | inactive |
| C=CCCCCCCCCC(=O)Nc1ccc(Cl)cc1C(=O)c1ccccc1 | inactive |
| CCC1c2cc(O)c(OC)cc2CCN1C (stereo unspecified) | inactive |
| O=C1CC(=O)NC(=S)N1 | inactive |
| CC1(C)N=C(N)N=C(N)N1c1ccc(CCc2cc(Cl)ccc2S(=O)(=O)F)c(Cl)c1 | active |

Reference source for all entries: PubChem BioAssay (NCI)
